experiment: yeast display, Sf9 membrane polyspecificity reagent, FACS + sequencing; frameworks hold sequencing errors
quantity.measured: polyreactivity (PSR sort gate)

Look over these answered cases.
1. QVQLVESGGGLVQAGGSLRLSCAASGIIFHFNEMGWYRQAPGKERELVAAITSGGSTNYADSVKGRFTISRDNAKNTVYLQMNSLKPEDTAVYYCAARRGLRLFAYRHGYWGQGTQVTVSS; low polyreactivity
2. QVQLVESGGGLVQAGGSLRLSCAASGYTFRYNALGWYRQAPGKERELVAAISSSGRTYYADSVKGRFTSSRDNAKNTVDLQMNSLKPDATAVYYCNAGPYAGARYRWGYDYWGQGTQVTVSS; high polyreactivity
3. QVQLGESGAGIVQAGGSLRLSCAASGSTFQTYAMGWYRQAPGKERELVAAITWRGGSTYYAHSVKGRFTISRDNAKNTVYLQMNSLKPEDTAVYYCAAKWLGAHDHRAAYDSWGQGTQVTVSS; low polyreactivity
4. QVQIVESGGGLVQAGGSLRLTCAASGSILWYNTMGWYRQAPGKERELVAAIRTSGSRTYYADSVKGRFTISRDNAKNTVYVQMNSLKPEDTAVYYCAAERGSQRVRSGYWGQGTQVTVSS; high polyreactivity
5. QVQLVESGGGLVQAGGSLRLSSAASGSTFHLYAMGWYRQAPGKEREFVAAIRGRGGNTYADSVKGRFTISRDNAKNTVYLQMNSLKPEDTAVYYCAAPLLRDLRSPYSYNYWGQGTQVTVSS; low polyreactivity
6. QVQLVESGGGLVQAGGSLRLSCAAYGRIFYRNVMGWYRQAPGKERELVAAITYRTGSTYYADSVKGRFTISRDNAKNTVYLQMNSLKPEDTAVYYCNVVPRNGQTWGYEYDYWGQGTQVTVSS; high polyreactivity
7. QVQLVESAGGLVQAGGSLRLSCAASGITHHHNAIGWSRQAPRKERELVAAITSNGGSTYYAVSVKGRFTISRDHAKNSVYLQINSLKPEDTAVYYCARDSKRLARYYYWGQGTQVTVSS; low polyreactivity
8. QVQLHESGGGLVQAGRGLRLSCPASGSITSTGFMGSYRQPPGKEREPVAAIAPGTTTYYADSVKGRFTISRDNAKYTEYLQMNSLRPEDTAVYYCAVFTDNRVAFLYWGQGTQVTVSS; low polyreactivity

(Q) Tell me the measured polyreactivity (PSR sort gate) of `QVQLVESGGGLVQAGGIIRLSCAASGLIFSRYAMGWYRQAPGKETELVAAITQSGTSTYYADSVKGRFTISRDNANNTVYLQMTILKPEDTAVYYCNAYPQYRYDYWGQGTQVTVSS` , please.
(A) low polyreactivity

(Q) For the sequence shown here, `QVQLVESGGGLVQAGGSLRLSCAASGRTCPRYGLGWYRQAPGKERELVATIRTGGRTNYADSVKGRFTISRDNAKNTVYLQMNSLKPEDTAVYYCATDSSKHPYSPTLLKFDYWGQGTQVTVSS` , give the reported polyreactivity (PSR sort gate).
(A) low polyreactivity

(Q) GET /values?readout=polyreactivity (PSR sort gate)&item= `QVQLVESGGGLVQAGGSLRLSCAASGLIFVKYAMGWYRQAPGKERELVAAITSTGGSTYYADSVKGRFTISRDNAKNTVYLQMNILKPEDTAVYYCATDYGYYDYWGQGTQVTVSS`
(A) low polyreactivity
